B1: BCL2L13 (parent)
chain: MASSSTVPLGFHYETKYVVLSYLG

Variants of: B1
method_summary: protein stability index of a GFP-peptide fusion (GPS, HEK-293T) (PSI 1-6); higher = more stable;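 further: lentivirally expressed fusions sorted by FACS into six bins by GFP to DsRed ratio, PSI derived from sequencing read proportions per bin multiplied by bin number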
details: c terminus: a fixed tail appended

[
  {
    "variant_key": "V18T",
    "protein stability index": 2.88
  },
  {
    "variant_key": "K16W",
    "protein stability index": 2.56
  },
  {
    "variant_key": "T6L",
    "protein stability index": 2.14
  },
  {
    "variant_key": "L9E",
    "protein stability index": 2.33
  },
  {
    "variant_key": "S5Y",
    "protein stability index": 3.24
  },
  {
    "variant_key": "T6V",
    "protein stability index": 1.82
  },
  {
    "variant_key": "S21K",
    "protein stability index": 1.45
  },
  {
    "variant_key": "L9H",
    "protein stability index": 2.31
  },
  {
    "variant_key": "Y13S",
    "protein stability index": 2.07
  },
  {
    "variant_key": "V7D",
    "protein stability index": 3.29
  },
  {
    "variant_key": "S3P",
    "protein stability index": 2.9
  },
  {
    "variant_key": "G24L",
    "protein stability index": 2.98
  },
  {
    "variant_key": "S21A",
    "protein stability index": 3.51
  },
  {
    "variant_key": "F11R",
    "protein stability index": 1.71
  },
  {
    "variant_key": "H12E",
    "protein stability index": 2.55
  },
  {
    "variant_key": "L20N",
    "protein stability index": 1.65
  },
  {
    "variant_key": "H12G",
    "protein stability index": 2.11
  },
  {
    "variant_key": "L9V",
    "protein stability index": 2.06
  },
  {
    "variant_key": "G10K",
    "protein stability index": 3.29
  },
  {
    "variant_key": "F11E",
    "protein stability index": 1.94
  },
  {
    "variant_key": "E14M",
    "protein stability index": 3.1
  },
  {
    "variant_key": "Y17M",
    "protein stability index": 3.56
  },
  {
    "variant_key": "T15I",
    "protein stability index": 3.13
  },
  {
    "variant_key": "T15Q",
    "protein stability index": 2.84
  }
]
